Reported cell viability by item:
tested on: P12-Ichikawa; assay: cell viability relative to DMSO control; higher = less cytotoxic; conditions: RPMI 5 mM glucose + 10% FBS; 48 h; 0.569 µM
MEASURE NAME: cell viability

MOLECULE | SYSTEM NAME | VAL
COc1cc([C@H]2Oc3cc([C@H]4Oc5cc(O)cc(O)c5C(=O)[C@@H]4O)ccc3O[C@@H]2CO)ccc1O | P12-Ichikawa | 98.9%
COC/1=C/C=C2\C(=C/C1=O)[C@H](CCC3=CC(=C(OC)C(=C23)OC)OC)NC(C)=O | P12-Ichikawa | 5.7%
C[S+](=O)([O-])c1cccc(CNc2nc(Nc3ccc4c(c3)CCC(=O)N4)ncc2C(F)(F)F)c1 | P12-Ichikawa | 113%
ClC1=CC\2=C(NC(=O)\C(=C2N[C@@H]3CN4CCC3CC4)C5=NC6=C([NH]5)C=CC=C6)C=C1 | P12-Ichikawa | 19.6%
COCCOc1nc(-c2ccc(Cl)c(Cl)c2)n(-c2ccc(NC(=O)CCl)cc2)n1 | P12-Ichikawa | 93.4%
Cc1cnc(C(=O)O)c[n+]1[O-] | P12-Ichikawa | 125%
COc1ccc([C@@H]2CC(=O)c3c(O)cc(O[C@@H]4O[C@H](CO[C@@H]5O[C@@H](C)[C@H](O)[C@@H](O)[C@H]5O)[C@@H](O)[C@H](O)[C@H]4O)cc3O2)cc1O | P12-Ichikawa | 111%
Cc1csc(NC(=O)c2sc3nc4c(c(C(F)(F)F)c3c2N)CCC4)n1 | P12-Ichikawa | 98.7%
COC(=O)C1C2CC3c4[nH]c5cc(OC)ccc5c4CCN3CC2CC(OC(=O)c2cc(OC)c(OC)c(OC)c2)C1OC (stereo unspecified) | P12-Ichikawa | 118%
Oc1cccc(-c2nc(N3CCOCC3)c3oc4ncccc4c3n2)c1 | P12-Ichikawa | 80.8%
CC(/C=C/C(=O)NO)=C\[C@@H](C)C(=O)c1ccc(N(C)C)cc1 | P12-Ichikawa | 98.3%
COC1=C2C[C@@H](C)C[C@H](OC)[C@H](O)[C@@H](C)/C=C(\C)[C@H](OC(N)=O)[C@@H](OC)/C=C/C=C(\C)C(=O)NC(=CC1=O)C2=O | P12-Ichikawa | 102%
C[C@H]1[C@@H](C(=O)C[C@H]2O[C@@H]3O[C@]4(C)CC[C@H]5[C@H](C)CC[C@@H]([C@H]2C)[C@@]35OO4)O[C@@H]2O[C@]3(C)CC[C@H]4[C@H](C)CC[C@@H]1[C@@]24OO3 | P12-Ichikawa | 102%
CC(O)(C#Cc1ccc2c(c1)N(c1nc(N)ncc1Cl)CC2)c1nccs1 (stereo unspecified) | P12-Ichikawa | 121%
C=CCc1cccc(/C=N/NC(=O)CN2CCN(Cc3ccccc3)CC2)c1O | P12-Ichikawa | 108%
Nc1nnc(-c2cccc(Cl)c2Cl)c(N)n1 | P12-Ichikawa | 99.6%

Values compiled from the supplement of paper PMC11451515.
